# measurement target: DinB2 (MsmDinB2) (Mycolicibacterium smegmatis)
# Construct: gene dinB; full-length 356 aa, 39 kDa, monomer; expressed in E. coli BL21(DE3) as His10Smt3 fusion, tag removed with Ulp1
# assay remarks: primer extension, kobs of first nucleotide addition vs nucleotide concentration, hyperbolic fit
# Assay type: biochemical
# study conditions: 5 mM MgCl2, 10 mM Tris-HCl pH 7.5, 37 °C, 50 nM 13-mer/18-mer DNA primer-template with dT as first template base, 1 μM enzyme; read-out: apparent Kd
Attribute: pKd
Entry type: numeric. Quantity: pKd, the -log10 of concentration in molar units.

q: Which value of pKd has been reported for Nc1ncnc2c1ncn2[C@@H]1O[C@H](COP(=O)(O)OP(=O)(O)OP(=O)(O)O)[C@@H](O)[C@H]1O in the records?
a: 4.18

q: Requested read-out: pKd. Entry: Nc1ncnc2c1ncn2[C@H]1C[C@H](O)[C@@H](COP(=O)(O)OP(=O)(O)OP(=O)(O)O)O1
a: 6.07

###

# measurement target: DinB2 (MsmDinB2) (Mycolicibacterium smegmatis, UniProt A0QR77)
# Construct: gene dinB; full-length 356 aa, 39 kDa, monomer; expressed in E. coli BL21(DE3) as His10Smt3 fusion, tag removed with Ulp1
# Sequence (A0QR77 entry or part of it): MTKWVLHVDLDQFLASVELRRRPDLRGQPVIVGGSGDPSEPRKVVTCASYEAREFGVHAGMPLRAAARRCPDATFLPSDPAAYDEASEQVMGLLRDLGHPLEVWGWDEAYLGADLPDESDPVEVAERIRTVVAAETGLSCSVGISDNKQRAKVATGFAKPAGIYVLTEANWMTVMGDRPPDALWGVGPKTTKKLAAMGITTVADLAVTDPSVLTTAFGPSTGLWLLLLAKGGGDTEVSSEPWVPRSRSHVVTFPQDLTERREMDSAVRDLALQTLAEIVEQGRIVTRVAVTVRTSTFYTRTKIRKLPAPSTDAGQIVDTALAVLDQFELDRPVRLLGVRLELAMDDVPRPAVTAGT
# assay remarks: primer extension, kobs of first nucleotide addition vs nucleotide concentration, hyperbolic fit
# Assay type: biochemical
# study conditions: 5 mM MgCl2, 10 mM Tris-HCl pH 7.5, 37 °C, 50 nM 13-mer/18-mer DNA primer-template with dC as first template base, 1 μM enzyme; read-out: apparent Kd
The reader will find reported pKd values listed item by item below.
Friendly reminder that pKd comes from taking -log10 of the concentration in mol/L.

Nc1nc2c(ncn2[C@@H]2O[C@H](COP(=O)(O)OP(=O)(O)OP(=O)(O)O)[C@@H](O)[C@H]2O)c(=O)[nH]1 | 4.66

With those in mind, consider the next compound.
q: Bench note: what pKd did Nc1nc2c(ncn2[C@H]2C[C@H](O)[C@@H](COP(=O)(O)OP(=O)(O)OP(=O)(O)O)O2)c(=O)[nH]1 show?
a: 6.06

###

# measurement target: DinB2 (MsmDinB2) (Mycolicibacterium smegmatis, UniProt A0QR77)
# Construct: gene dinB; full-length 356 aa, 39 kDa, monomer; expressed in E. coli BL21(DE3) as His10Smt3 fusion, tag removed with Ulp1
# assay remarks: primer extension, kobs of first nucleotide addition vs nucleotide concentration, hyperbolic fit
# Format: biochemical
# study conditions: 5 mM MgCl2, 10 mM Tris-HCl pH 7.5, 37 °C, 50 nM 13-mer/18-mer DNA primer-template with dA as first template base, 1 μM enzyme; read-out: apparent Kd
Quick reference for Kd among some compounds
Kindly write the number and append the unit.

O=c1ccn([C@@H]2O[C@H](COP(=O)(O)OP(=O)(O)OP(=O)(O)O)[C@@H](O)[C@H]2O)c(=O)[nH]1 | 411 µM

Consider the record given below.
q: GET /values?readout=Kd&item= Cc1cn([C@H]2C[C@H](O)[C@@H](COP(=O)(O)OP(=O)(O)OP(=O)(O)O)O2)c(=O)[nH]c1=O
a: 8 µM
